test: Pharmacokinetic parameters for Clarithromycin evaluated after single oral administration of 1000 or 2 x 500 mg Clarithromycin extended-release tablets to 34 adult volunteers under fasting and feeding conditions.; type: ADME, organism-based; parameters: dose 1000 mg, dose 2 x 500, route oral; settings: human, in vivo, po, 1000 mg; dietary status Fed, dosed compound id 21, dosed compound name CLARITHROMYCIN, gender male and female, regimen Single dose, tissue Plasma
quantity.name: Cmax (µg/mL)
Dear colleague, please return just the value in µg/mL, with no unit written.

Ask: I'd like to know its Cmax. The compound in question is "CC[C@H]1OC(=O)[C@H](C)[C@@H](O[C@H]2C[C@@](C)(OC)[C@@H](O)[C@H](C)O2)[C@H](C)[C@@H](O[C@@H]2O[C@H](C)C[C@H](N(C)C)[C@H]2O)[C@](C)(OC)C[C@@H](C)C(=O)[C@H](C)[C@@H](O)[C@]1(C)O"
Reply: 3.96

###

assay: Pharmacokinetic parameters for Clarithromycin evaluated after single oral administration of 1000 or 2 x 500 mg Clarithromycin extended-release tablets to 34 adult volunteers under fasting and feeding conditions.; type: ADME, organism-based; design: dose 1000 mg, dose 2 x 500, route oral; settings: human, in vivo, po, 1000 mg; dietary status Fasting, dosed compound id 21, dosed compound name CLARITHROMYCIN, gender male and female, regimen Single dose, tissue Plasma; read-out: AUC(0-t)
quantity.name: AUC (ng·h/mL)
Dear colleague, please return just the value in ng·h/mL, with no unit written.

Ask: I'd like to know its AUC. The compound in question is CC[C@H]1OC(=O)[C@H](C)[C@@H](O[C@H]2C[C@@](C)(OC)[C@@H](O)[C@H](C)O2)[C@H](C)[C@@H](O[C@@H]2O[C@H](C)C[C@H](N(C)C)[C@H]2O)[C@](C)(OC)C[C@@H](C)C(=O)[C@H](C)[C@@H](O)[C@]1(C)O [CLARITHROMYCIN]
Reply: 36600
